B1: RPAIN (parent)
chain: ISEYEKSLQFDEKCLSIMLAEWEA

Variants of: B1
ASSAY_NAME: protein stability index of a GFP-peptide fusion (GPS, HEK-293T) (PSI 1-6); higher = more stable;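 note: lentivirally expressed fusions sorted by FACS into six bins by GFP to DsRed ratio, PSI derived from sequencing read proportions per bin multiplied by bin number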
CONDITION_NOTES: c terminus: a fixed tail appended
Note to self: values exactly at 2 are True. So protein stability index at or above 2 is True, below is False.

>>> qualitative_label("L15N")
"True"
>>> qualitative_label("A20I")
"False"
>>> qualitative_label("C14P")
"True"
>>> qualitative_label("S2H")
"False"
>>> qualitative_label("E23P")
"False"
>>> qualitative_label("K13M")
"False"
>>> qualitative_label("S7F")
"True"
>>> qualitative_label("E23F")
"True"
>>> qualitative_label("E12N")
"True"
>>> qualitative_label("A24L")
"False"
>>> qualitative_label("F10R")
"True"
>>> qualitative_label("E21N")
"True"
>>> qualitative_label("M18I")
"False"
>>> qualitative_label("I17C")
"False"
>>> qualitative_label("C14Y")
"False"
>>> qualitative_label("S7N")
"False"
>>> qualitative_label("S16W")
"False"
>>> qualitative_label("S16H")
"True"
>>> qualitative_label("I1M")
"True"
>>> qualitative_label("K13H")
"False"
>>> qualitative_label("M18E")
"False"
>>> qualitative_label("L19K")
"True"
>>> qualitative_label("L15W")
"True"
>>> qualitative_label("Y4F")
"False"
>>> qualitative_label("K13D")
"False"
>>> qualitative_label("S7D")
"False"
>>> qualitative_label("C14G")
"True"
>>> qualitative_label("F10D")
"True"
>>> qualitative_label("I17G")
"True"
>>> qualitative_label("A24V")
"False"
>>> qualitative_label("L15E")
"True"
>>> qualitative_label("Y4D")
"True"
>>> qualitative_label("L15A")
"True"
>>> qualitative_label("K6M")
"False"
